# test.target: T1, TGFβ2 (transforming growth factor beta 2) (Homo sapiens, UniProt P61812 SEQ:1-112)
# T1 sequence: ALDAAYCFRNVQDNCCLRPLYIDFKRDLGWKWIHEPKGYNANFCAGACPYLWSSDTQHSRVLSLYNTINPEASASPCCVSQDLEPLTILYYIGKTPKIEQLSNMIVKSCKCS
# assay.text: cell_activity; mink lung epithelial cell proliferation
# protocol.conditions: chain copies: 2 (inferred, homodimer)
pKi: −log10 of the molar value.
measurement.kind: pKi

1. GGAGGUUAUUACAGAGUCUGUAUAGCUGUACUCCCC (ssRNA, 2'-F C and U; 3'-3' dT cap) [NX22283]: 8.00
